- Study Target: T1, human CD11a (human, UniProt P20701 26-1170)
- T1 construct: whole, on cells; On Jurkat T-cells or human peripheral blood mononuclear cells, as part of LFA-1; also called CD11a on Jurkat cells; alpha subunit of LFA-1
- T1 sequence (P20701 26-1170): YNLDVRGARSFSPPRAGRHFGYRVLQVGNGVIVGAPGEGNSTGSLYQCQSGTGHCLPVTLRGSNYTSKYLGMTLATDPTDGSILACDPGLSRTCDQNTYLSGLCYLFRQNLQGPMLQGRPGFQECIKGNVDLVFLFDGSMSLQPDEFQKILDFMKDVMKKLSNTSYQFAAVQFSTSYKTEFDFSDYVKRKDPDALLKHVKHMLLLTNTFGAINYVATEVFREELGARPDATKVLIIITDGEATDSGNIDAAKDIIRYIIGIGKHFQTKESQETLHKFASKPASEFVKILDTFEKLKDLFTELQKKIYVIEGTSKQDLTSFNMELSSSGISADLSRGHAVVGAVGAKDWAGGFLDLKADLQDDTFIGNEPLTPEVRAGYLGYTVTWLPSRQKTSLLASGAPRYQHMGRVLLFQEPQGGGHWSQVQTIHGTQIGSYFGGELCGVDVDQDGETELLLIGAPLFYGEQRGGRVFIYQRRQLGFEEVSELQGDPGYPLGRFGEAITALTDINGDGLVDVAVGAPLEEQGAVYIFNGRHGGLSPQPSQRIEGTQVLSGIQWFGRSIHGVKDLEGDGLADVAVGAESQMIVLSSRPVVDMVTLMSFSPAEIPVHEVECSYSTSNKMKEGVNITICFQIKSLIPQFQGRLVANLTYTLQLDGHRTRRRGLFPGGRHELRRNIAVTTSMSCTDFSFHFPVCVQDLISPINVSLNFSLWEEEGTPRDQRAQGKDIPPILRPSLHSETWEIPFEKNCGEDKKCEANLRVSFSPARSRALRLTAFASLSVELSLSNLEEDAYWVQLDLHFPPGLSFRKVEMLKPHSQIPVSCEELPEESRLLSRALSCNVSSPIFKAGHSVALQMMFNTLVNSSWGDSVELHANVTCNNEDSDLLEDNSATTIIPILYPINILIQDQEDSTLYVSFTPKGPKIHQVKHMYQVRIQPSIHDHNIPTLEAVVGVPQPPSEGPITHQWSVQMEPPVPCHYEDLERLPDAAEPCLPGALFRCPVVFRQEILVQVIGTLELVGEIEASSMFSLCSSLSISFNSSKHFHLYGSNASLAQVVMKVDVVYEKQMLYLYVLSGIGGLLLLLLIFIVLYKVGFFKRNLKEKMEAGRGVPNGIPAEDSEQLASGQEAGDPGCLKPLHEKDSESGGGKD
- Assay: FACScan, Jurkat cells
Observed Property: Var.EC50/HuIgG1 EC50 (ratio)
Respond numerically; units are ratio and should not be typed.

Give its Var.EC50/HuIgG1 EC50 value. Item: HuIgG1 mutant ArgH58Ala (antibody, V domains shown, HuIgG1 mutant, human IgG1; Kabat numbering) VH: EVQLVESGGGLVQPGGSLRLSCAASGYSFTGHWMNWVRQAPGKGLEWVGMIHPSDSETAYNQKFKDRFTISVDKSKNTLYLQMNSLRAEDTAVYYCARGIYFYGTTYFDYWGQGTLVTVSS VL: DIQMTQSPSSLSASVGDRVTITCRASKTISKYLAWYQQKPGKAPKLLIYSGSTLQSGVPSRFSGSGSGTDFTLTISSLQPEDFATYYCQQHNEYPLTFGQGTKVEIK 1.1

Given HuIgG1 mutant AspH54Ala (antibody, V domains shown, HuIgG1 mutant, human IgG1; Kabat numbering) VH: EVQLVESGGGLVQPGGSLRLSCAASGYSFTGHWMNWVRQAPGKGLEWVGMIHPSASETRYNQKFKDRFTISVDKSKNTLYLQMNSLRAEDTAVYYCARGIYFYGTTYFDYWGQGTLVTVSS VL: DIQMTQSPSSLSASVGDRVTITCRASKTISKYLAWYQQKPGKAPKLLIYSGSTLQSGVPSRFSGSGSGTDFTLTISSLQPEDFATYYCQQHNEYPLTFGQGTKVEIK , state its recorded Var.EC50/HuIgG1 EC50. 147

Query: Var.EC50/HuIgG1 EC50; subject: HuIgG1 mutant SerH55Ala (antibody, V domains shown, HuIgG1 mutant, human IgG1; Kabat numbering) VH: EVQLVESGGGLVQPGGSLRLSCAASGYSFTGHWMNWVRQAPGKGLEWVGMIHPSDAETRYNQKFKDRFTISVDKSKNTLYLQMNSLRAEDTAVYYCARGIYFYGTTYFDYWGQGTLVTVSS VL: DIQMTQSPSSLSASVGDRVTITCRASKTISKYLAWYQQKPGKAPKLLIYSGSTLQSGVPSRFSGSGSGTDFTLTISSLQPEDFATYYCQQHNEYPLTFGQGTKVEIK 1.3

# lookup: Var.EC50/HuIgG1 EC50 of HuIgG1 mutant L1 (antibody, V domains shown, HuIgG1 mutant, human IgG1; Kabat numbering) VH: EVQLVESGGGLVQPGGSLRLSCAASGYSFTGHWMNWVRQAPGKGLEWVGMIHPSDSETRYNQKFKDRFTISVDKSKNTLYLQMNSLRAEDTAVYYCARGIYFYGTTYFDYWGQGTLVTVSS VL: DIQMTQSPSSLSASVGDRVTITCRASAAIAAYLAWYQQKPGKAPKLLIYSGSTLQSGVPSRFSGSGSGTDFTLTISSLQPEDFATYYCQQHNEYPLTFGQGTKVEIKR 1.3

What Var.EC50/HuIgG1 EC50 value was documented for this binder, HuIgG1 mutant ThrH30Ala (antibody, V domains shown, HuIgG1 mutant, human IgG1; Kabat numbering) VH: EVQLVESGGGLVQPGGSLRLSCAASGYSFAGHWMNWVRQAPGKGLEWVGMIHPSDSETRYNQKFKDRFTISVDKSKNTLYLQMNSLRAEDTAVYYCARGIYFYGTTYFDYWGQGTLVTVSS VL: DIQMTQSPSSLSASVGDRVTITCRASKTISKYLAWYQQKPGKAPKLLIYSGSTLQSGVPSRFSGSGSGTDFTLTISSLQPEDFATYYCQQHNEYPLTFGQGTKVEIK ? 1.7

What value of Var.EC50/HuIgG1 EC50 has been reported for the following binder? HuIgG1 mutant H2A2 (antibody, V domains shown, HuIgG1 mutant, human IgG1; Kabat numbering) VH: EVQLVESGGGLVQPGGSLRLSCAASGYSFTGHWMNWVRQAPGKGLEWVGMIHPADAETRYNQKFKDRFTISVDKSKNTLYLQMNSLRAEDTAVYYCARGIYFYGTTYFDYWGQGTLVTVSS VL: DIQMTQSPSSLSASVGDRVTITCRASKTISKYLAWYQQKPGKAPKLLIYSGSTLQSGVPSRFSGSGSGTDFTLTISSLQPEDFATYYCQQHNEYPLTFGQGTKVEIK 1.9

Entry HuIgG1 mutant SerH55Asn (antibody, V domains shown, HuIgG1 mutant, human IgG1; Kabat numbering) VH: EVQLVESGGGLVQPGGSLRLSCAASGYSFTGHWMNWVRQAPGKGLEWVGMIHPSDNETRYNQKFKDRFTISVDKSKNTLYLQMNSLRAEDTAVYYCARGIYFYGTTYFDYWGQGTLVTVSS VL: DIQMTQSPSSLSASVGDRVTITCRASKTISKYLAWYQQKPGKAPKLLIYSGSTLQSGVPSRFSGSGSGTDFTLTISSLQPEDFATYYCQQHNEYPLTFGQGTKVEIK has what Var.EC50/HuIgG1 EC50? 2.1

Entry HuIgG1 mutant AspH65Ala (antibody, V domains shown, HuIgG1 mutant, human IgG1; Kabat numbering) VH: EVQLVESGGGLVQPGGSLRLSCAASGYSFTGHWMNWVRQAPGKGLEWVGMIHPSDSETRYNQKFKARFTISVDKSKNTLYLQMNSLRAEDTAVYYCARGIYFYGTTYFDYWGQGTLVTVSS VL: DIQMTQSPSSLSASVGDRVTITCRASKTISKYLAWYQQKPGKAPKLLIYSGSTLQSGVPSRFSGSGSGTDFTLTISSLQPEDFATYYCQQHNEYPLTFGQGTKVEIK has what Var.EC50/HuIgG1 EC50? 0.8

Give the measured Var.EC50/HuIgG1 EC50 of HuIgG1 mutant SerH55Gln (antibody, V domains shown, HuIgG1 mutant, human IgG1; Kabat numbering) VH: EVQLVESGGGLVQPGGSLRLSCAASGYSFTGHWMNWVRQAPGKGLEWVGMIHPSDQETRYNQKFKDRFTISVDKSKNTLYLQMNSLRAEDTAVYYCARGIYFYGTTYFDYWGQGTLVTVSS VL: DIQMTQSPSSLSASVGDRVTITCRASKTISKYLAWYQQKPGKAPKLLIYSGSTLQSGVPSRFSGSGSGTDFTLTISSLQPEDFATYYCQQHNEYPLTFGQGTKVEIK . 2.9

Which Var.EC50/HuIgG1 EC50 is reported for this binder? HuIgG1 mutant GlyH31Ala (antibody, V domains shown, HuIgG1 mutant, human IgG1; Kabat numbering) VH: EVQLVESGGGLVQPGGSLRLSCAASGYSFTAHWMNWVRQAPGKGLEWVGMIHPSDSETRYNQKFKDRFTISVDKSKNTLYLQMNSLRAEDTAVYYCARGIYFYGTTYFDYWGQGTLVTVSS VL: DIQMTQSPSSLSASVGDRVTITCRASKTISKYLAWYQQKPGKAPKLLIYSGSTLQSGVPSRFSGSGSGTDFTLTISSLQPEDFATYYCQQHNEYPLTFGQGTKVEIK 1.2
